# Subject of test: hKOR (Homo sapiens, UniProt P41145)
# Construct: expressed in transfected cells; host or cells: HEK 293T (ATCC CRL-11268), transient
# Sequence (P41145 whole entry): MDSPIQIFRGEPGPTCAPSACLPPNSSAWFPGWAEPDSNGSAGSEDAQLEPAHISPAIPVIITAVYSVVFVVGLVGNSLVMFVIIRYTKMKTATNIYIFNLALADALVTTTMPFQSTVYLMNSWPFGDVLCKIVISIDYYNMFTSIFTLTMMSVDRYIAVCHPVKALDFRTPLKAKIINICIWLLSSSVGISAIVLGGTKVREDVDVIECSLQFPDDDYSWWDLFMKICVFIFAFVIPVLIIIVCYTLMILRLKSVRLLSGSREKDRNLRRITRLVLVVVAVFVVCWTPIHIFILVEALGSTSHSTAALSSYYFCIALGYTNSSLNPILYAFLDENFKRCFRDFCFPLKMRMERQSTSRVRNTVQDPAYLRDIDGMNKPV
# Protocol text: Tango β-arrestin recruitment assay, hKOR
# Type: cell-based
# Run parameters: Tango, WT-hKOR
Each entry below carries its reported Arrestin pEC50±SEM hKOR.
Reported metric: Arrestin pEC50±SEM hKOR

                                   compound  test_value
0  O=C(N[C@@H]1CC[C@@]2(O)[C@H]3Cc4ccc(O)c5c4[C@@]2(CCN3CC2CC2)[C@H]1O5)c1cccc(I)c1 [IBNtxA, reference compound]        10.9
1  N=C(N)NCc1cccc(C(=O)N[C@@H]2CCC3C4Cc5ccc(O)c6c5[C@@]3(CCN4CC3CC3)C2O6)c1 (stereo partly drawn)        7.79
2  NCc1ccc(C(=O)N[C@@H]2CC[C@H]3[C@H]4Cc5ccc(O)c6c5[C@@]3(CCN4CC3CC3)[C@H]2O6)cc1        9.43

---

# Subject of test: mouse delta opioid receptor (mDOR) (Mus musculus, UniProt P32300)
# Construct: expressed in transfected cells; host or cells: HEK-293T, transient (PEI), with BRET sensor cDNAs
# Protocol text: BRET assay, G-protein activation, mDOR
# Assay type: cell-based
# Run parameters: mDOR, BRET
Reported metric: log10 EC50 (log10 of the value in nM)

Compound	log10 EC50
N=C(N)NCc1cccc(C(=O)N[C@@H]2CCC3C4Cc5ccc(O)c6c5[C@@]3(CCN4CC3CC3)C2O6)c1 (some centres unmarked) [MP1208]	1.42
CO[C@@]12CC[C@@H](NC(=O)c3cccc(I)c3)C3Oc4c(O)ccc5c4[C@@]31CCN(CC1CC1)C2C5 (some centres unmarked) [MP1305]	1.61
O=C(N[C@@H]1C=CC2[C@H]3Cc4ccc(O)c5c4[C@@]2(CCN3CC2CC2)[C@H]1O5)c1cccc(I)c1 (some centres unmarked) [MP1104, reference compound]	0.15
NCc1cccc(C(=O)NC2CCC3C4Cc5ccc(O)c6c5C3(CCN4CC3CC3)C2O6)c1 (centres unmarked) [MP1207]	2.06
O=C(N[C@@H]1CC[C@@]2(O)[C@H]3Cc4ccc(O)c5c4[C@@]2(CCN3CC2CC2)[C@H]1O5)c1cccc(I)c1 [IBNtxA, reference compound]	-0.32

---

# Subject of test: mDOR (Mus musculus)
# Sequence (P32300 whole entry): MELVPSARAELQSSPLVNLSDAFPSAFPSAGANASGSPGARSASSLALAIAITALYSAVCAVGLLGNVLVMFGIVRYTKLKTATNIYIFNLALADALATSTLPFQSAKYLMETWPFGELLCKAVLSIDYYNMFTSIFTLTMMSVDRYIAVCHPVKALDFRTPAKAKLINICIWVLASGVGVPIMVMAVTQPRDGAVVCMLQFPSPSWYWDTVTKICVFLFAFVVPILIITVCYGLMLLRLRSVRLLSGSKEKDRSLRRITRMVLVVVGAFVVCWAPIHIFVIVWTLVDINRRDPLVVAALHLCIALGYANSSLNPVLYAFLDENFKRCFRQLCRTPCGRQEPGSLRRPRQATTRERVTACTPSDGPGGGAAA
# Protocol text: [35S]GTPγS functional assay, mDOR
# Run parameters: [35S]GTPγS, antagonism vs 100 nM agonist
Reported metric: IC50 (nM)

>>> df
                                   molecule  test_value
0  N=C(N)NCc1cccc(C(=O)N[C@@H]2CCC3C4Cc5ccc(O)c6c5[C@@]3(CCN4CC3CC3)C2O6)c1 (stereo partly shown)        11.4

---

# Subject of test: UniProt P41143
# Sequence (P41143 whole entry): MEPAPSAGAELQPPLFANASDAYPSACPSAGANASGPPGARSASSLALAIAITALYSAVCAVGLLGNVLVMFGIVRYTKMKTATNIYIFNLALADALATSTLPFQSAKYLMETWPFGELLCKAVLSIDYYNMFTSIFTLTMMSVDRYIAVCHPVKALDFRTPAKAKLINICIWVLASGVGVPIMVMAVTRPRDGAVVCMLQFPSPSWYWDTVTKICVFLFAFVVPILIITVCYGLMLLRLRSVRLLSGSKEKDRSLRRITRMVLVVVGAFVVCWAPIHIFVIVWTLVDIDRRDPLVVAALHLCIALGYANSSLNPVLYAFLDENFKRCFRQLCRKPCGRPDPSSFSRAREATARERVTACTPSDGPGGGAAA
# Protocol text: Tango β-arrestin recruitment assay, hDOR
# Type: cell-based
# Set-up: expressed in transfected cells; host or cells: HTLA cells expressing TEV fused-beta-Arrestin2
# Run parameters: hDOR, Tango
Reported metric: EC50

Compound	Subject of test	Test value
O=C(N[C@@H]1C=CC2[C@H]3Cc4ccc(O)c5c4[C@@]2(CCN3CC2CC2)[C@H]1O5)c1cccc(I)c1 (stereo partly drawn) [MP1104, reference compound]	UniProt P41143	0.00373 µM
O=C(N[C@@H]1CC[C@@]2(O)C3Cc4ccc(O)cc4[C@@]2(CCN3CC2CC2)C1)c1cccc(I)c1	UniProt P41143	0.0867 µM
N=C(N)NCc1cccc(C(=O)N[C@@H]2CCC3C4Cc5ccc(O)c6c5[C@@]3(CCN4CC3CC3)C2O6)c1 (stereo partly drawn)	UniProt P41143	3.62 µM

---

# Subject of test: hMOR (Homo sapiens, UniProt P35372)
# Construct: expressed in transfected cells; host or cells: HEK 293T (ATCC CRL-11268), transient
# Sequence (P35372 whole entry): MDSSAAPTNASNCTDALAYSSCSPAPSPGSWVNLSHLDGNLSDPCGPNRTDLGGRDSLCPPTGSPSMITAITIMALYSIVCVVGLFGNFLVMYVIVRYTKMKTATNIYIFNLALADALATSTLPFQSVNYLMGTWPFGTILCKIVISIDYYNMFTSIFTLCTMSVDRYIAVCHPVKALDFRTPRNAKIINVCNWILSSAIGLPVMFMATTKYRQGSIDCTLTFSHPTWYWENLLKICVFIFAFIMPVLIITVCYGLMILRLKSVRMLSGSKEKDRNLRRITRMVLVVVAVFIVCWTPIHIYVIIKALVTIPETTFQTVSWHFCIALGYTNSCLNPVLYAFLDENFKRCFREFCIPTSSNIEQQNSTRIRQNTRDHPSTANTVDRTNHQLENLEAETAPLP
# Protocol text: cell-based
# Format: cell-based
# Run parameters: read-out: Gi EC50 hMOR
pEC50: −log10 of the molar value.

Compound	pEC50
O=C(N[C@@H]1CC[C@@]2(O)C3Cc4ccc(O)cc4[C@@]2(CCN3CC2CC2)C1)c1cccc(I)c1 [MP1601]	10.00
O=C(N[C@@H]1CC[C@H]2[C@H]3Cc4ccc(O)c5c4[C@@]2(CCN3CC2CC2)[C@H]1O5)c1cccc(CO)c1 [MP1210]	9.82
O=C(N[C@@H]1C=CC2[C@H]3Cc4ccc(O)c5c4[C@@]2(CCN3CC2CC2)[C@H]1O5)c1cccc(I)c1 (stereo partly shown) [MP1104, reference compound]	10.13
NCc1ccc(C(=O)N[C@@H]2CC[C@H]3[C@H]4Cc5ccc(O)c6c5[C@@]3(CCN4CC3CC3)[C@H]2O6)cc1 [MP1209]	9.60
N=C(N)NCc1cccc(C(=O)N[C@@H]2CCC3C4Cc5ccc(O)c6c5[C@@]3(CCN4CC3CC3)C2O6)c1 (stereo partly shown) [MP1208]	11.10
O=C(N[C@@H]1CC[C@@]2(O)[C@H]3Cc4ccc(O)c5c4[C@@]2(CCN3CC2CC2)[C@H]1O5)c1cccc(I)c1 [IBNtxA, reference compound]	10.15
CO[C@@]12CC[C@@H](NC(=O)c3cccc(I)c3)C3Oc4c(O)ccc5c4[C@@]31CCN(CC1CC1)C2C5 (stereo partly shown) [MP1305]	9.92

---

# Subject of test: mKOR (Mus musculus, UniProt P33534)
# Construct: expressed in transfected cells
# Sequence (P33534 whole entry): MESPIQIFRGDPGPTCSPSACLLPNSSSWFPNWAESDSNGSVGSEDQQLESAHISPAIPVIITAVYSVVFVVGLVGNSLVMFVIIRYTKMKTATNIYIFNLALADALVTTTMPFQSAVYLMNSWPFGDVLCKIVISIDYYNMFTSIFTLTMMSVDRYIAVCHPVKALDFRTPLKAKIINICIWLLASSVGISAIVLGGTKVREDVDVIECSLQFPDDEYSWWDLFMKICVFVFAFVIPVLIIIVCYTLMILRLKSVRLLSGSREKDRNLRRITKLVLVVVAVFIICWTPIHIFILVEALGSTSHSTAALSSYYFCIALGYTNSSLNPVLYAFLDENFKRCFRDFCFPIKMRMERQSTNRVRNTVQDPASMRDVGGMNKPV
# Protocol text: [35S]GTPγS functional assay, mKOR
# Assay type: biochemical
# Run parameters: [35S]GTPγS, nM ± SEM
Reported metric: EC50 (nM)

Compound	Subject of test	Units of measure	Test value
O=C(N[C@@H]1C=CC2[C@H]3Cc4ccc(O)c5c4[C@@]2(CCN3CC2CC2)[C@H]1O5)c1cccc(I)c1 (stereo partly shown) [MP1104, reference compound]	mKOR (Mus musculus, UniProt P33534)	nM	0.027
O=C(N[C@@H]1CC[C@@]2(O)[C@H]3Cc4ccc(O)c5c4[C@@]2(CCN3CC2CC2)[C@H]1O5)c1cccc(I)c1 [IBNtxA, reference compound]	mKOR (Mus musculus, UniProt P33534)	nM	0.22
O=C(N[C@@H]1CC[C@@]2(O)C3Cc4ccc(O)cc4[C@@]2(CCN3CC2CC2)C1)c1cccc(I)c1	mKOR (Mus musculus, UniProt P33534)	nM	3
CO[C@@]12CC[C@@H](NC(=O)c3cccc(I)c3)C3Oc4c(O)ccc5c4[C@@]31CCN(CC1CC1)C2C5 (stereo partly shown)	mKOR (Mus musculus, UniProt P33534)	nM	7.4

---

# Subject of test: hMOR (Homo sapiens, UniProt P35372)
# Construct: expressed in transfected cells; host or cells: HEK 293T (ATCC CRL-11268), transient
# Protocol text: cell-based
# Type: cell-based
# Run parameters: HEK-293T, read-out: Gi Emax hMOR
# Emax values compiled below
Reported metric: Emax

>>> print(df.to_string())
                                   compound  test_value
0  N=C(N)NCc1cccc(C(=O)N[C@@H]2CCC3C4Cc5ccc(O)c6c5[C@@]3(CCN4CC3CC3)C2O6)c1 (stereo partly drawn)         42%
1  O=C(N[C@@H]1CCC2C3Cc4ccc(O)c5c4C2(CCN3CC2CC2)C1O5)c1cccc(I)c1 (stereo partly drawn)         92%
2  NCc1cccc(C(=O)NC2CCC3C4Cc5ccc(O)c6c5C3(CCN4CC3CC3)C2O6)c1 (stereo not drawn)         33%

---

# Subject of test: mKOR (Mus musculus, UniProt P33534)
# Construct: expressed in transfected cells
# Protocol text: [35S]GTPγS functional assay, mKOR
# Assay type: biochemical
Reported metric: Emax (%)

                                   molecule  units_of_measure  test_value
0  O=C(N[C@@H]1CCC2C3Cc4ccc(O)c5c4C2(CCN3CC2CC2)C1O5)c1cccc(I)c1 (some centres unmarked)                 %          94
1  NCc1cccc(C(=O)NC2CCC3C4Cc5ccc(O)c6c5C3(CCN4CC3CC3)C2O6)c1 (centres unmarked)                 %        39.3
2  N=C(N)NCc1cccc(C(=O)N[C@@H]2CCC3C4Cc5ccc(O)c6c5[C@@]3(CCN4CC3CC3)C2O6)c1 (some centres unmarked)                 %          43
3  CO[C@@]12CC[C@@H](NC(=O)c3cccc(I)c3)C3Oc4c(O)ccc5c4[C@@]31CCN(CC1CC1)C2C5 (some centres unmarked)                 %        42.2
4  O=C(N[C@@H]1CC[C@@]2(O)C3Cc4ccc(O)cc4[C@@]2(CCN3CC2CC2)C1)c1cccc(I)c1                 %          72
